- SYSTEM_UNDER_TEST: HIV integrase (Human immunodeficiency virus type 1 group M subtype B)
Counter-ions that a name gives are not always drawn.
MEASUREMENT_TYPE: pIC50
Note on pIC50: it is the negative log10 of concentration, concentration in mol/L.

## Input Name the recorded pIC50 for `COCC=Cc1nc(C(=O)NN(C)C)c(O)c2ncc(Cc3ccc(F)cc3)cc12` .
## Output 7.95

## Input Name the recorded pIC50 for `COCC(=O)Nc1nc(C(=O)NCCC(=O)OC)c(O)c2ncc(Cc3ccc(F)cc3)cc12` .
## Output 7.35

## Input Name the recorded pIC50 for CCC(O)CNC(=O)c1nc(C(=O)NCC2CCCO2)c2cc(Cc3ccc(F)cc3)cnc2c1O (stereo not shown) .
## Output 7.52

## Input Name the recorded pIC50 for `COCC=Cc1nc(C(=O)NCCOC)c(O)c2ncc(Cc3ccc(F)cc3)cc12` .
## Output 7.95

## Input Name the recorded pIC50 for `COCC(=O)Nc1nc(C(=O)NCCC#N)c(O)c2ncc(Cc3ccc(F)cc3)cc12` .
## Output 7.56

## Input Name the recorded pIC50 for COCCNC(=O)c1nc(C(C)O)c2cc(Cc3ccc(F)cc3)cnc2c1O (stereo not shown) .
## Output 7.77

## Input Name the recorded pIC50 for COCC=Cc1nc(C(=O)NCCN(C)C)c(O)c2ncc(Cc3ccc(F)cc3)cc12 [Example B-20, hydrochloride monohydrate] .
## Output 7.46

## Input Name the recorded pIC50 for COCC(=O)Nc1nc(C(=O)NC(C)C(=O)OC)c(O)c2ncc(Cc3ccc(F)cc3)cc12 (stereo not shown) .
## Output 7.29

## Input Name the recorded pIC50 for CCC(O)CNC(=O)c1nc(C(=O)NCCCN2CCCC2=O)c2cc(Cc3ccc(F)cc3)cnc2c1O (stereo not shown) .
## Output 7.45

## Input Name the recorded pIC50 for `COCC(=O)Nc1nc(C(=O)NCCCN(C)C)c(O)c2ncc(Cc3ccc(F)cc3)cc12` .
## Output 7.15

## Input Name the recorded pIC50 for CCC(O)CNC(=O)c1nc(C(=O)NC(C)(C)C)c2cc(Cc3ccc(F)cc3)cnc2c1O (stereo not shown) .
## Output 7.75

## Input Name the recorded pIC50 for `CCN(CC)CCCNC(=O)c1nc(NC(=O)COC)c2cc(Cc3ccc(F)cc3)cnc2c1O` .
## Output 6.80

## Input Name the recorded pIC50 for CCC(O)CNC(=O)c1nc(NC(=O)COC)c2cc(Cc3ccc(F)cc3)cnc2c1O (stereo not shown) .
## Output 7.62

## Input Name the recorded pIC50 for `COCC(=O)Nc1nc(C(=O)NCCN(C)C)c(O)c2ncc(Cc3ccc(F)cc3)cc12` .
## Output 7.43

## Input Name the recorded pIC50 for `CCOCCNC(=O)c1nc(NC(=O)COC)c2cc(Cc3ccc(F)cc3)cnc2c1O` .
## Output 7.32

## Input Name the recorded pIC50 for `COCCNC(=O)c1nc(NC(C)=O)c2cc(Cc3ccc(F)cc3)cnc2c1O` .
## Output 7.34
